# Test system: ACHN
# METHOD: NCI tumour cell line growth inhibition, 48 h
The source made the active and inactive calls. Cut-off read from the data, not from the text of the source: active = GI50 up to about 1.1 µM and inactive = higher.
Reported GI50 by item:

COMPOUND	GI50
CCN(CC)C1C(=O)NC1C#Cc1ccccc1 (stereo unspecified)	> 100 µM (inactive)
CN1CCN(c2ccc3nc(C4=C(O)C(=O)c5c(nc(CCl)n5C)C4=O)[nH]c3n2)CC1	10.3 µM (inactive)
c1ccc(C2=NN(c3nc4ccccc4s3)C3(CCCCC3)N2)nc1	29.9 µM (inactive)
C/C=C\C(CC(=O)NCCC1CN(C(=O)c2ccccc2)c2ccccc21)CC(=O)OC (stereo unspecified)	> 100 µM (inactive)
Fc1ccc2c3c([nH]c2c1)CCNC3	65.3 µM (inactive)
Oc1cc(Br)cc2cc(Br)cnc12	1.48 µM (inactive)

====

# Test system: HOP-62
# METHOD: NCI tumour cell line growth inhibition, 48 h
Calls of active or inactive are those of the source. Cut-off read from the data, not from the text of the source: active = GI50 up to about 1.1 µM and inactive = higher.
Classes used: Y (active), N (inactive)

COMPOUND	GROUP
CCOP(=O)(OCC)/C(C#N)=C/c1cccn1Cc1ccccc1	N
Cc1ccc(Cl)c(NC(=O)C(=O)C(C(=O)c2ccncc2)C2OC(=O)c3ccccc32)c1 (centres undefined)	N
O=c1c2cc(-c3ccccc3)cnc2sn1-c1ccc([N+](=O)[O-])cc1	N
C(=C\c1cccc(/C=C/c2ccccn2)n1)/c1ccccn1	N
Cc1ccc(-c2c(C#N)c(-c3ccc(Cl)cc3)c(C#N)c(=O)n2NS(=O)(=O)c2ccc(C)cc2)cc1	N
COC(=O)C(=O)C1(CCC(C)=O)c2ccccc2-c2ccccc21	N
COc1ccc(N(C(=O)NCCO)c2ccccc2)cc1	N
COc1ccc(/C=C2\N=C3N(Cc4ccccc4)C=C(N)N3C2=O)cc1	N
COc1ccc(C[C@H]2NC(=O)/C=C/C[C@@H]([C@H](C)[C@H]3O[C@@H]3c3ccccc3)OC(=O)[C@H](CC(C)C)OC(=O)[C@H](C)CNC2=O)cc1	Y

====

# System: DMS-114
# METHOD: NCI tumour cell line growth inhibition, 48 h
Active and inactive are the calls of the source. Cut-off read from the data, not from the text of the source: active = GI50 up to about 1.1 µM and inactive = higher.
Overview of recorded GI50 for various molecules

MOLECULE	GI50
COc1cc(/C=N/c2nncs2)ccc1O	> 100 µM (inactive)
OCC(O)C(O)C(O)c1nn(-c2ccc(Cl)cc2)c2nc3cc(Cl)c(Cl)cc3nc12 (stereo not drawn)	94.4 µM (inactive)
COc1ccc(-c2cc(=O)c3ccccc3o2)cc1N	34 µM (inactive)
COC(=O)C1CSC(c2csc(CCN)n2)=N1 (stereo not drawn)	> 100 µM (inactive)
O=C1CCNC/C1=C\c1ccccc1	24.1 µM (inactive)
Cc1cc(O)c2c(c1)C(O)(c1ccc3c(c1O)C(=O)c1c(O)cc(C)cc1C3(O)C1OC(CO)C(O)C(O)C1O)c1cccc(O)c1C2=O (stereo not drawn)	9.91 µM (inactive)
O/N=C(\c1nc2ccc(Cl)cc2nc1O)C(O)c1ccc(Cl)cc1Cl (stereo not drawn)	> 100 µM (inactive)
COc1ccc(-c2nnc3c4ccccc4sn23)cc1	17.1 µM (inactive)

====

Below, each entry is listed with its recorded GI50.
# System: MDA-MB-231
# METHOD: NCI tumour cell line growth inhibition, 48 h
The source made the active and inactive calls. Rule as the data show it: active = GI50 up to about 1.1 µM and inactive = higher.

MOLECULE	GI50
O=C(CNS(=O)(=O)Cc1ccccc1)NNc1ccccc1	> 100 µM (inactive)
CC(C(=O)[O-])S(=O)(=O)O.CCc1c2cc(OC)c(OC)cc2cc2c3cc(OC)c(OC)cc3cc[n+]12	20.1 µM (inactive)
CC1(C)CCOC(=O)C(Cl)CC1Cl (stereo unspecified)	> 100 µM (inactive)
CCCCCC/C=C\CCCCCCCCC(=O)c1cccc(OC)c1OC	> 100 µM (inactive)
Cn1ncc2c(NCCc3ccccc3)nc(Cl)nc21	3.97 µM (inactive)
CN(CCO)CCC1COc2ccccc2O1 (stereo unspecified)	> 10 µM (inactive)
COC(=O)C(=O)C(C(=O)C(=O)Nc1ccc(C)cc1C)c1nc2ccc(Cl)cc2nc1O (stereo unspecified)	> 100 µM (inactive)
COc1ccccc1NC(=O)O/N=C(/Cl)C(C)C	7.19 µM (inactive)
Cc1csc(NNC(N)=O)n1	> 100 µM (inactive)
COC1=C2C=[N+](C)C3C(=C2C=CC1OC)Cc1cc2c(cc13)OCO2 (stereo unspecified)	14.6 µM (inactive)
Cc1ccc(S(=O)(=O)Nc2ccccc2C(=O)c2ccc(C)c(C)c2)cc1	> 100 µM (inactive)
C[C@@H](CC(=O)OCc1ccccc1)OC1OC(COC(=O)C(C)(C)C)C(OC(=O)C(C)(C)C)C(OC(=O)C(C)(C)C)C1OC(=O)C(C)(C)C (stereo partly specified)	> 100 µM (inactive)
COc1ccc(N2C(=O)C3c4[nH]c5ccc(OCc6ccccc6)cc5c4C4CCC(C(C)(C)C)CC4C3C2=O)cc1 (stereo unspecified)	53.2 µM (inactive)
C/C(=N\NC(N)=S)c1cccs1.OB(O)c1ccccc1	> 100 µM (inactive)
COc1ccc([I+]c2ccc(OC)cc2)cc1	> 100 µM (inactive)
COc1ccc(/C=N/n2c(-c3ccccc3)n[nH]c2=O)cc1	> 100 µM (inactive)
COc1ccc(/N=C(/C[S+]([O-])c2ccc(C)cc2)C(F)(F)F)cc1 (stereo unspecified)	> 100 µM (inactive)
CC(C)=CC(=O)O[C@@H]1CC(C)(C)CC2C3=CCC4[C@]56CC[C@](O)(OC5)C(C)(C)C6CC[C@@]4(C)C3(C)CC[C@]21C(=O)O (stereo partly specified)	> 100 µM (inactive)
NS(=O)(=O)c1ccc(NCc2nc3ccccc3[nH]2)cc1	> 100 µM (inactive)
N#Cc1c(-c2ccc(Cl)cc2)cc(-c2ccc(Nc3ccnc4cc(Cl)ccc34)cc2)[nH]c1=O	34.4 µM (inactive)
Cc1nnc2cc(C(=O)O)c3ccccc3n2c1=O	> 10 µM (inactive)
